Tested on: HIV-1 NL 4-3
Test: HIV-1 infection of C8166 cells (syncytia formation, p24 ELISA) with HIV-1 NL 4-3
Format: cell-based
Set-up: key: ++, +, (+), (+)− and − represent decreasing numbers of syncitia formed; ++, +, (+), (+)− and − represent decreasing numbers of syncitia formed; ++, +, (+), (+)− and − represent decreasing numbers of syncitia formed; ++, +, (+), (+)− and − represent decreasing numbers of syncitia formed; ++, +, (+), (+)− and − represent decreasing numbers of syncitia formed
Settings: 0.01 μM; Day 6; C8166 cells
Square brackets hold non-standard residues; d marks the D form. Peptide text beside a SMILES is read from it. Ava = NCCCCC(=O)O
Metric: syncitia formed, Day 6

As a guide, the following entries are already answered.
NCC(=O)N1CCC[C@H]1C(=O)NCC(=O)O [GPG, reference compound] (H-Gly-Pro-Gly-OH): +
N=C(N)NCCC[C@H](NC(=O)CNC(=O)[C@@H]1CCCN1C(=O)CN)C(=O)O [GPGR, reference compound] (H-GPGR-OH; N-terminus and C-terminus assumed): ++
N=C(N)NCCC[C@H](NC(=O)CNC(=O)[C@@H]1CCCN1C(=O)CN)C(=O)NCCCCC(=O)O [GPGR valeric acid, GPGR-NHCH2CH2CH2CH2COOH] (H-GPGR[Ava]-OH; N-terminus assumed): ++
NCC(=O)N1CCC[C@H]1C(=O)NCC(=O)NCCCCC(=O)O [GPG valeric acid, GPG-NHCH2CH2CH2CH2COOH] (H-GPG[Ava]-OH; N-terminus assumed): +

Next, consider the following compound.
Exercise: State its syncitia formed, Day 6 for this compound: C[C@H](NC(=O)[C@H](CCCNC(=N)N)NC(=O)CNC(=O)[C@@H]1CCCN1C(=O)CN)C(=O)NCCCCC(=O)O [GPGRA valeric acid, GPGRA-NHCH2CH2CH2CH2COOH] (H-GPGRA[Ava]-OH; N-terminus assumed)
Solution: ++

----------
Test system: HIV-1 NDK
Experiment: HIV-1 infection of C8166 cells (syncytia formation, p24 ELISA) with HIV-1 NDK
Format: cell-based
Parameters: key: ++, +, (+), (+)− and − represent decreasing numbers of syncitia formed; ++, +, (+), (+)− and − represent decreasing numbers of syncitia formed; ++, +, (+), (+)− and − represent decreasing numbers of syncitia formed; ++, +, (+), (+)− and − represent decreasing numbers of syncitia formed; ++, +, (+), (+)− and − represent decreasing numbers of syncitia formed
Conditions: 0.5 μM, Day 6
Square brackets hold non-standard residues; d marks the D form. Peptide text beside a SMILES is read from it. Ava = NCCCCC(=O)O
Metric: syncitia formed, Day 6

C[C@H](NC(=O)[C@H](CCCNC(=N)N)NC(=O)CNC(=O)[C@@H]1CCCN1C(=O)CN)C(=O)N[C@@H](Cc1ccccc1)C(=O)NCCCCC(=O)O [SPC3 monomer valeric acid, GPGRAF-NHCH2CH2CH2CH2COOH] (H-GPGRAF[Ava]-OH; N-terminus assumed): +
NCC(=O)N1CCC[C@H]1C(=O)NCC(=O)O [GPG, reference compound] (H-Gly-Pro-Gly-OH): ++
N=C(N)NCCC[C@H](NC(=O)CNC(=O)[C@@H]1CCCN1C(=O)CN)C(=O)NCCCCC(=O)O [GPGR valeric acid, GPGR-NHCH2CH2CH2CH2COOH] (H-GPGR[Ava]-OH; N-terminus assumed): +

----------
Test system: HIV-1 NDK
Assay: HIV-1 infection of C8166 cells (syncytia formation, p24 ELISA) with HIV-1 NDK
Format: cell-based
Set-up: key: ++, +, (+), (+)− and − represent decreasing numbers of syncitia formed; ++, +, (+), (+)− and − represent decreasing numbers of syncitia formed; ++, +, (+), (+)− and − represent decreasing numbers of syncitia formed; ++, +, (+), (+)− and − represent decreasing numbers of syncitia formed; ++, +, (+), (+)− and − represent decreasing numbers of syncitia formed
Conditions: 0.5 μM, Day 6
Square brackets hold non-standard residues; d marks the D form. Peptide text beside a SMILES is read from it. Ava = NCCCCC(=O)O
Metric: syncitia formed, Day 6

N=C(N)NCCC[C@H](NC(=O)CNC(=O)[C@@H]1CCCN1C(=O)CN)C(=O)O [GPGR, reference compound] (H-GPGR-OH; N-terminus and C-terminus assumed): ++
C[C@H](NC(=O)[C@H](CCCNC(=N)N)NC(=O)CNC(=O)[C@@H]1CCCN1C(=O)CN)C(=O)NCCCCC(=O)O [GPGRA valeric acid, GPGRA-NHCH2CH2CH2CH2COOH] (H-GPGRA[Ava]-OH; N-terminus assumed): +
NCC(=O)N1CCC[C@H]1C(=O)NCC(=O)NCCCCC(=O)O [GPG valeric acid, GPG-NHCH2CH2CH2CH2COOH] (H-GPG[Ava]-OH; N-terminus assumed): +

----------
System: HIV-1 NDK
Assay: HIV-1 infection of C8166 cells (syncytia formation, p24 ELISA) with HIV-1 NDK
Type: cell-based
Parameters: key: ++, +, (+), (+)− and − represent decreasing numbers of syncitia formed; ++, +, (+), (+)− and − represent decreasing numbers of syncitia formed; ++, +, (+), (+)− and − represent decreasing numbers of syncitia formed; ++, +, (+), (+)− and − represent decreasing numbers of syncitia formed; ++, +, (+), (+)− and − represent decreasing numbers of syncitia formed
Details: 0.5 μM, Day 5
Experimental: HIV-1 NL 4-3 isolate (Adachi et al., 1986; Barré-Sinoussi et al., 1983) and highly cytopathic Zairian HIV-1 NDK isolate (Ellrodt et al., 1984) was propagated in permissive CEM cells (Nara et al., 1987). […] Samples of 3×10^5/100 μL C8166 cells were preincubated in 96-well microtiter plates in culture medium containing various concentrations of peptide. […] Toxicity was evaluated by daily cell count and trypan-blue exclusion assay. […]
Square brackets hold non-standard residues; d marks the D form. Peptide text beside a SMILES is read from it. Ava = NCCCCC(=O)O
Metric: syncitia formed, Day 5

C[C@H](NC(=O)[C@H](CCCNC(=N)N)NC(=O)CNC(=O)[C@@H]1CCCN1C(=O)CN)C(=O)N[C@@H](Cc1ccccc1)C(=O)NCCCCC(=O)O [SPC3 monomer valeric acid, GPGRAF-NHCH2CH2CH2CH2COOH] (H-GPGRAF[Ava]-OH; N-terminus assumed): −
N=C(N)NCCC[C@H](NC(=O)CNC(=O)[C@@H]1CCCN1C(=O)CN)C(=O)NCCCCC(=O)O [GPGR valeric acid, GPGR-NHCH2CH2CH2CH2COOH] (H-GPGR[Ava]-OH; N-terminus assumed): −
C[C@H](NC(=O)[C@H](CCCNC(=N)N)NC(=O)CNC(=O)[C@@H]1CCCN1C(=O)CN)C(=O)NCCCCC(=O)O [GPGRA valeric acid, GPGRA-NHCH2CH2CH2CH2COOH] (H-GPGRA[Ava]-OH; N-terminus assumed): −
NCC(=O)N1CCC[C@H]1C(=O)NCC(=O)NCCCCC(=O)O [GPG valeric acid, GPG-NHCH2CH2CH2CH2COOH] (H-GPG[Ava]-OH; N-terminus assumed): −
N=C(N)NCCC[C@H](NC(=O)CNC(=O)[C@@H]1CCCN1C(=O)CN)C(=O)O [GPGR, reference compound] (H-GPGR-OH; N-terminus and C-terminus assumed): (+)

Turning now to a further compound:
Exercise: Answer with the recorded syncitia formed, Day 5 of NCC(=O)N1CCC[C@H]1C(=O)NCC(=O)O [GPG, reference compound] (H-Gly-Pro-Gly-OH) only.
Solution: +

----------
Test system: HIV-1 NDK
Test: HIV-1 infection of C8166 cells (syncytia formation, p24 ELISA) with HIV-1 NDK
Type: cell-based
Settings: HIV 1 NDK, Table 10
Square brackets hold non-standard residues; d marks the D form. Peptide text beside a SMILES is read from it. Ava = NCCCCC(=O)O
Measured IC100 by item

Exercise: Identify IC100 associated with the molecule N=C(N)NCCC[C@H](NC(=O)CNC(=O)[C@@H]1CCCN1C(=O)CN)C(=O)O [GPGR, reference compound] (H-GPGR-OH; N-terminus and C-terminus assumed)
Solution: >5 µM

Exercise: Fill in IC100 for record NCC(=O)N1CCC[C@H]1C(=O)NCC(=O)O [GPG, reference compound] (H-Gly-Pro-Gly-OH)
Solution: >5 µM

Exercise: Please give measured IC100 of the following entry: N=C(N)NCCC[C@H](NC(=O)CNC(=O)[C@@H]1CCCN1C(=O)CN)C(=O)NCCCCC(=O)O [GPGR valeric acid, GPGR-NHCH2CH2CH2CH2COOH] (H-GPGR[Ava]-OH; N-terminus assumed)
Solution: >5 µM
